Source of measurements: patent US20260193376A1

Parameter Stimulation Index, FXa generation assay, 800 nM OA antibody: see the listing below.
- TARGET OF ASSAY: human plasma-derived Factor IXa (human, UniProt P00740 47-191; P00740 227-461)
- Sequence (P00740 47-191, chain 1 of 2): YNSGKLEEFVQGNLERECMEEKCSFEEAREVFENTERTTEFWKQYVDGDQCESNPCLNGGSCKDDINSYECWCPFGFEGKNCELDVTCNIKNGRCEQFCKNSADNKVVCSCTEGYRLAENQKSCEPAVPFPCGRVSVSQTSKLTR
- Sequence (P00740 227-461, chain 2 of 2): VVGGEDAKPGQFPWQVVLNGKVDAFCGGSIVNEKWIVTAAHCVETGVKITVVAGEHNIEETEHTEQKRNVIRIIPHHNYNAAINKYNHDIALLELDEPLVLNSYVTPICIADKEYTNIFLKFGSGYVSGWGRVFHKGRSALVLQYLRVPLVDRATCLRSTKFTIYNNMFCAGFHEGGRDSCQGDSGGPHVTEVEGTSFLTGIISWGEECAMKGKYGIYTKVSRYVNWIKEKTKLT
- PROTOCOL NOTES: cell-based or functional assay
Value expressed in fold; do not type the unit.

Known Stimulation Index, FXa generation assay, 800 nM OA antibody results, listed for orientation:
- one-armed (OA) mAb11-0935 (antibody, V domains shown) VH: EVQLVESGGGLVQPGRSLRLSCAASGFTFHDYAMHWVRQVPGKGLEWVSGISWKGDIGGYVDSVKGRFTISRDNEKNSLYLQMNSLRAEDTALYYCVKSYGSGSFYNAFDSWGQGTLVTVSS VL: DIQMTQSPSTLSASVGDRVTITCRASQSISSWLAWYQQKPGKAPKFLIYKASRLDRGQPSRFSGSGSGTEFSLTISSLQPDDFATYYCLEYSSYIRTFGQGTKVEIK: 1570
- one-armed (OA) mAb11-1262 (antibody, V domains shown) VH: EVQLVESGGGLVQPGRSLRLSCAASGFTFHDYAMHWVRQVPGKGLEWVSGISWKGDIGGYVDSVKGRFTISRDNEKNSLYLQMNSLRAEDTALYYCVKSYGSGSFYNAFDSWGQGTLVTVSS VL: DIQMTQSPSTLSASVGDRVTITCRASQSIQSWLAWYQQKPGKAPKFLIYKASRLDRGTPSRFSGSGSGTEFSLTISSLQPDDFATYYCLEYSSYIRTFGQGTKVEIK: 1950

Next, consider the following binder.
Enquiry: Tell me the measured Stimulation Index, FXa generation assay, 800 nM OA antibody of one-armed (OA) mAb11-1259 (antibody, V domains shown) VH: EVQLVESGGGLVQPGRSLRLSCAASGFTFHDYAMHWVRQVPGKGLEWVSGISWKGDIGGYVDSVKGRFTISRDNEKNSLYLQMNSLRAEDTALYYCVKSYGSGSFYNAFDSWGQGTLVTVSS VL: DIQMTQSPSTLSASVGDRVTITCRASQKISSWLAWYQQKPGKAPKFLIYKASRLDRGTPSRFSGSGSGTEFSLTISSLQPDDFATYYCLEYSSYIRTFGQGTKVEIK , please.
Return: 2000
